target: Transthyretin (Homo sapiens, UniProt P02766); experiment: Inhibition of transthyretin fibril formation assessed as turbidity at 21.6 uM at pH 4.4 after 3 hrs; format: functional
Measurement name: inhibition

> print(dat)
                   molecule.smiles  assay.value
1  O=Cc1ccc(Oc2ccc(Cl)cc2Cl)c(O)c1        > 80%
2     O=C(O)c1ccc(Oc2ccccc2)c(O)c1        > 80%
3             Oc1ccccc1-c1nnc(S)o1        > 80%
4    Oc1cc(CCl)ccc1Oc1ccc(Cl)cc1Cl        > 80%
5   COc1cc(CCl)ccc1Oc1ccc(Cl)cc1Cl        > 80%

Parameters: items (list). Returns: inhibition for each item.
1. O=C(Nc1nnc[nH]1)c1c(Cl)ccc(Cl)c1Cl
2. Oc1cc(Cl)ccc1Oc1ccc(Cl)cc1Cl
3. OCc1ccc(Oc2ccc(Cl)cc2Cl)c(O)c1
4. COc1cc(C(=O)O)ccc1Oc1ccc(Cl)cc1Cl
5. O=C(O)c1ccc(Oc2ccc(Cl)cc2Cl)c(O)c1
6. COc1cc(C=O)ccc1Oc1ccccc1
7. COc1cc(CCl)ccc1Oc1ccccc1

Key:
> 80%
62%
> 80%
> 80%
> 80%
> 80%
> 80%

Exercise: What inhibition value was documented for this molecule, N[C@H](Cc1cc(I)c(Oc2cc(I)c(O)c(I)c2)c(I)c1)C(=O)O ?
Key: 75%
